For each entry below, report its inhibition value.
Assay: TLR3 IRF3 reporter activation blockers – cell-based, poly I:C stimulus, luciferase, 10K MLSCN set, primary screen (AID 602277)
Details: HEK293-TLR3 RL24 IRF3 luciferase reporter, at 10 µM, stronger effect = higher value
One number for each entry, in %.

The cases that follow already have their inhibition on record.
molecule	inhibition [%]
O=c1oc2ccccc2c2nccnc12	27.5
COc1ccc(-n2c(Cc3cccn3C)nnc2SCC(=O)Nc2ccc(Cl)cc2)cc1	23.2
CCOC(=O)CCc1c(C)nc2cc(-c3ccc(F)cc3)[nH]n2c1=O	22.2

Give one value of inhibition per listed molecule.
1. Cc1cc(OCC(=O)N2CCCC2)cc(C)c1Cl
2. NC(=O)c1cccc2c1C(=O)N(C1CCCCC1)C2
3. COCCNS(=O)(=O)c1cc(F)ccc1OC

Completion:
-0.933
24.7
25.9

###

Test: endothelial E-selectin expression blockers – imaging, HUVEC, immunofluorescence, MLSMR starter and 10KST1 sets, primary screen (AID 487);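 also: 100% = median nuclei count of all wells on the same plate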
Conditions: HUVEC TNFalpha-induced E-selectin immunofluorescence imaging, at 2 µM; measured here: cell number, toxicity
measured.metric: nuclei count (%)
Answers are plain numbers, in %.

The cases that follow already have their nuclei count on record.
O=C(NCCCN1CCOCC1)c1cc(-c2ccc(O)cc2)on1 114
Cc1cc(NC(=O)c2ccc3c(c2)C(=O)N(Cc2cccnc2)C3=O)no1 128

Prompt: Would you kindly share the measured nuclei count for `CCOc1ccc(-c2cn(S(=O)(=O)c3cccc4nsnc34)nc2N)cc1` ?
Completion: 66.8

###

Assay: blockers of RIG-like receptor reporter activation – cell-based, Sendai virus stimulus, luciferase, 10K MLSCN set, TLR/RLR signaling modifier project, primary screen (AID 602276);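 also: firefly luciferase from ISG56 promoter only with Renilla not read in this screen; 0% = Sendai virus plus DMSO and 100% = medium plus DMSO without virus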
Details: HEK293 RL24 IRF3 luciferase reporter, at 10 µM, stronger effect = higher value
measured.metric: inhibition (%)
Answers are plain numbers, in %.

compound	units.of.measure	inhibition
COc1ccccc1Nc1nc(N)nc(-c2cc3ccccc3o2)n1	%	-39.9
CCC(Sc1ncccc1C(=O)O)C(=O)N1CCCC1 (stereo not drawn)	%	5.91

Next compound, please.
Prompt: Would you kindly share the measured inhibition for `COC(=O)CCSCc1cn2cc(Cl)ccc2n1` ?
Completion: 18.6

###

Experiment: blockers of RIG-like receptor reporter activation – cell-based, Sendai virus stimulus, luciferase, 10K MLSCN set, TLR/RLR signaling modifier project, primary screen (AID 602276);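 also: firefly luciferase from ISG56 promoter only with Renilla not read in this screen; 0% = Sendai virus plus DMSO and 100% = medium plus DMSO without virus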
Details: HEK293 RL24 IRF3 luciferase reporter, at 10 µM, stronger effect = higher value
measured.metric: inhibition (%)
Answers are plain numbers, in %.

molecule	units.of.measure	inhibition
CCOC(=O)c1cc(C(C)(C)C)oc1CN	%	15.2
COC(=O)C(CC(C)C)NC(=O)CSc1nc(-c2ccccc2)c(C#N)c(=O)[nH]1 (configuration not stated)	%	15.4
CC1CCCC(C)N1C(=O)CSc1nnc(-c2cccs2)o1 (configuration not stated)	%	-27.4
CC(C)CNc1oc(-c2ccc(F)cc2)nc1C#N	%	-4.19
COC(=O)Nc1nc2c(C)cccc2s1	%	-14.5

Give one value of inhibition per listed molecule.
1. Cc1cccc(-n2ncc3c(NCCCO)ncnc32)c1
2. CC(=O)c1ccc(OCC(O)CN2CC(C)OC(C)C2)cc1 (configuration not stated)
3. COc1cccc(NC(=O)c2nc3nc(C)cc(C(F)F)n3n2)c1
4. CCOC(=O)c1c(-c2ccc(C)o2)csc1NC(=O)COC(=O)c1cccs1

Completion:
1: -58.8; 2: 9.28; 3: 3.8; 4: 7.28
